assay_method_text: Cytotoxicity in HEp-2
Type: cell-based
cond: human, HEp-2 cells
recorded_metric: CC50 (µM)
A number alone suffices; assume µM.

Request: State the recorded CC50 for this entry: "COc1ccc(C[C@H](N)C(=O)N[C@H]2[C@@H](O)[C@H](n3cnc4c(N(C)C)ncnc43)O[C@@H]2CO)cc1"
Response: 0.6

Request: State the recorded CC50 for this entry: CC(C)(CC1(c2ccc(-c3cnn(C4CC4)n3)cc2)NC(=N)N(C(COC(=O)NC2(C(F)F)CC2)c2ccc(Cl)c(-c3ncnn3C(F)F)c2)C1=O)C(F)(F)F (centres unmarked)
Response: 17

----------
tested_target: recombinant HIV-1 protease (Human immunodeficiency virus type 1 group M subtype B, UniProt P04585)
assay_method_text: biochemical
recorded_metric: Ki (nM)
A number alone suffices; assume nM.

Request: State the recorded Ki for this entry: "COC(=O)N[C@H](C(=O)N[C@@H](Cc1ccccc1)[C@@H](O)CN(Cc1ccc(-c2ccccn2)cc1)NC(=O)[C@@H](NC(=O)OC)C(C)(C)C)C(C)(C)C"
Response: 0.023

----------
assay_method_text: Cytotoxicity in stimulated PBMCs
Assay type: cell-based
cond: human
Protocol: Compound cytotoxicity assessment in MT-4 cells, primary CD4+ T lymphocytes, and MDMs was carried out using a protocol identical to the antiviral assay except uninfected cells were used and tested with higher concentration ranges of test compounds. […] For all cytotoxicity assays, the CC50 value for puromycin was determined as a positive internal control and to assess assay sensitivity in each cell type. […]
recorded_metric: CC50 (µM)
A number alone suffices; assume µM.

molecule	recorded_metric	experimental_value
CC(C)(CC1(c2ccc(-c3cnn(C4CC4)n3)cc2)NC(=N)N(C(COC(=O)NC2(C(F)F)CC2)c2ccc(Cl)c(-c3ncnn3C(F)F)c2)C1=O)C(F)(F)F (centres unmarked)	CC50	9.1

Field: next molecule
Request: State the recorded CC50 for this entry: "COc1ccc(C[C@H](N)C(=O)N[C@H]2[C@@H](O)[C@H](n3cnc4c(N(C)C)ncnc43)O[C@@H]2CO)cc1"
Response: 0.8

----------
assay_method_text: Cytotoxicity across human cell types (summary ranges)
Assay type: cell-based
cond: Gal-HepG2 and MRC-5 cells; five human cell lines (Gal-PC3, HEp-2, Huh7, Gal-HepG2, MRC-5); read-out: mean CC50 range
recorded_metric: CC50

Request: State the recorded CC50 for this entry: CC(C)(CC1(c2ccc(-c3cnn(C4CC4)n3)cc2)NC(=N)N(C(COC(=O)NC2(C(F)F)CC2)c2ccc(Cl)c(-c3ncnn3C(F)F)c2)C1=O)C(F)(F)F (stereo not shown) [GS-9770]
Response: 13 to 20 µM

----------
assay_method_text: Metabolic stability in human liver microsomes
Format: in vitro ADME
cond: read-out: T½ in the presence of human liver microsomes
recorded_metric: half-life (min)
A number alone suffices; assume min.

Request: State the recorded half-life for this entry: "COC(=O)N[C@H](C(=O)N[C@@H](Cc1ccccc1)[C@@H](O)CN(Cc1ccc(-c2ccccn2)cc1)NC(=O)[C@@H](NC(=O)OC)C(C)(C)C)C(C)(C)C"
Response: 24

----------
System: MT-4 T cell line
assay_method_text: Cytotoxicity in uninfected MT-4 cells
Assay type: cell-based, human
cond: mock infected
recorded_metric: CC50 (µM)
A number alone suffices; assume µM.

Request: State the recorded CC50 for this entry: "COC(=O)N[C@H](C(=O)N[C@@H](Cc1ccccc1)[C@@H](O)CN(Cc1ccc(-c2ccccn2)cc1)NC(=O)[C@@H](NC(=O)OC)C(C)(C)C)C(C)(C)C"
Response: 51

----------
assay_method_text: In vivo pharmacokinetics in rat
Set-up: species or system Sprague-Dawley rat
cond: male, Sprague-Dawley, plasma, 1 mg/kg IV and 5 mg/kg PO, read-out: Terminal t1/2 (converted)
recorded_metric: half-life

Request: State the recorded half-life for this entry: CC(C)(CC1(c2ccc(-c3cnn(C4CC4)n3)cc2)NC(=N)N(C(COC(=O)NC2(C(F)F)CC2)c2ccc(Cl)c(-c3ncnn3C(F)F)c2)C1=O)C(F)(F)F (stereo not shown) [GS-9770]
Response: 10.6 h

----------
assay_method_text: Cytotoxicity across human cell types (summary ranges)
Type: cell-based
cond: human, human cell lines and primary cells (15 cell types); across 15 different cell types; read-out: mean CC50 range
recorded_metric: CC50

Request: State the recorded CC50 for this entry: CC(C)(CC1(c2ccc(-c3cnn(C4CC4)n3)cc2)NC(=N)N(C(COC(=O)NC2(C(F)F)CC2)c2ccc(Cl)c(-c3ncnn3C(F)F)c2)C1=O)C(F)(F)F (stereo not shown)
Response: 4.7 to 34 µM

----------
assay_method_text: Cytotoxicity in Gal-HepG2
Format: cell-based
cond: human, Gal-HepG2 cells
recorded_metric: CC50 (µM)
A number alone suffices; assume µM.

molecule	measurement_units	experimental_value
CC(C)(CC1(c2ccc(-c3cnn(C4CC4)n3)cc2)NC(=N)N(C(COC(=O)NC2(C(F)F)CC2)c2ccc(Cl)c(-c3ncnn3C(F)F)c2)C1=O)C(F)(F)F (centres unmarked) [GS-9770]	µM	13

Field: next molecule
Request: State the recorded CC50 for this entry: COc1ccc(C[C@H](N)C(=O)N[C@H]2[C@@H](O)[C@H](n3cnc4c(N(C)C)ncnc43)O[C@@H]2CO)cc1 [Puromycin, puromycin]
Response: 1.4

----------
assay_method_text: In vivo pharmacokinetics in monkey
cond: plasma; cynomolgus monkey; 1 mg/kg IV and 4 mg/kg PO; read-out: Terminal t1/2 (converted)
Description: Preclinical pharmacokinetic studies were performed in male Sprague–Dawley rats, beagle dogs, and cynomolgus monkeys (three animals per dosing group in each species) following federal and Institutional Animal Care and Use Committee (IACUC) guidelines as described previously ([32]). […] The oral fraction absorbed (F%) was calculated using the formula: %F=( PO Dose AUC0−inf) x (IV Dose)/(IV Dose AUC0−inf) x (PO Dose)×100%
recorded_metric: half-life (h)
A number alone suffices; assume h.

Request: State the recorded half-life for this entry: CC(C)(CC1(c2ccc(-c3cnn(C4CC4)n3)cc2)NC(=N)N(C(COC(=O)NC2(C(F)F)CC2)c2ccc(Cl)c(-c3ncnn3C(F)F)c2)C1=O)C(F)(F)F (stereo not shown)
Response: 7.4

----------
assay_method_text: Cytotoxicity in CD4+ T-lymphocytes
Assay type: cell-based
cond: human, uninfected (mock infected) primary CD4+ T lymphocytes
recorded_metric: CC50 (µM)
A number alone suffices; assume µM.

Request: State the recorded CC50 for this entry: CC(C)(CC1(c2ccc(-c3cnn(C4CC4)n3)cc2)NC(=N)N(C(COC(=O)NC2(C(F)F)CC2)c2ccc(Cl)c(-c3ncnn3C(F)F)c2)C1=O)C(F)(F)F (centres unmarked)
Response: 9

----------
assay_method_text: Cytotoxicity in monocyte-derived macrophages
Assay type: cell-based
cond: human, uninfected (mock infected) monocyte-derived macrophages
Method: Compound cytotoxicity assessment in MT-4 cells, primary CD4+ T lymphocytes, and MDMs was carried out using a protocol identical to the antiviral assay except uninfected cells were used and tested with higher concentration ranges of test compounds. […] For all cytotoxicity assays, the CC50 value for puromycin was determined as a positive internal control and to assess assay sensitivity in each cell type. […]
recorded_metric: CC50 (µM)
A number alone suffices; assume µM.

Request: State the recorded CC50 for this entry: CC(C)(CC1(c2ccc(-c3cnn(C4CC4)n3)cc2)NC(=N)N(C(COC(=O)NC2(C(F)F)CC2)c2ccc(Cl)c(-c3ncnn3C(F)F)c2)C1=O)C(F)(F)F (centres unmarked)
Response: 16

----------
Test system: HIV-1 IIIb
assay_method_text: 5-day cytoprotection antiviral assay in MT-4 cells
Type: cell-based
cond: Human immunodeficiency virus 1, IIIB, T-cell, 120 h
We begin with a simple list: items and their reported pEC50.
Please note pEC50 is a logarithmic value: minus log10 of concentration in mol/L. Answer with that number alone.

Request: State the recorded pEC50 for this entry: CC(C)(CC1(c2ccc(-c3cnn(C4CC4)n3)cc2)NC(=N)N(C(COC(=O)NC2(C(F)F)CC2)c2ccc(Cl)c(-c3ncnn3C(F)F)c2)C1=O)C(F)(F)F (centres unmarked)
Response: 7.96

Request: State the recorded pEC50 for this entry: "COC(=O)N[C@H](C(=O)N[C@@H](Cc1ccccc1)[C@@H](O)CN(Cc1ccc(-c2ccccn2)cc1)NC(=O)[C@@H](NC(=O)OC)C(C)(C)C)C(C)(C)C"
Response: 7.96

----------
assay_method_text: Cytotoxicity in uninfected MT-4 cells
Type: cell-based, human
cond: human, uninfected (mock infected) MT-4 T cells, MT-4 T cell line
recorded_metric: CC50 (µM)
A number alone suffices; assume µM.

Request: State the recorded CC50 for this entry: CC(C)(CC1(c2ccc(-c3cnn(C4CC4)n3)cc2)NC(=N)N(C(COC(=O)NC2(C(F)F)CC2)c2ccc(Cl)c(-c3ncnn3C(F)F)c2)C1=O)C(F)(F)F (centres unmarked)
Response: 6.6

----------
assay_method_text: Cytotoxicity across human cell types (summary ranges)
Type: cell-based
cond: primary human hepatocytes and PBMCs (stimulated and unstimulated); read-out: mean CC50 range
recorded_metric: CC50

Request: State the recorded CC50 for this entry: CC(C)(CC1(c2ccc(-c3cnn(C4CC4)n3)cc2)NC(=N)N(C(COC(=O)NC2(C(F)F)CC2)c2ccc(Cl)c(-c3ncnn3C(F)F)c2)C1=O)C(F)(F)F (stereo not shown)
Response: 9.1 to 34 µM
